System: Abeta 1-42
Assay: Cellular αLisa assay in SKNBE2 cells, Abeta 1-42
Format: cell-based, human
Settings: Homo sapiens, SKNBE2, 18 h, incubated for 18 hours, read-out: Cellular αLisa assay in SKNBE2 cells Abeta 42 pIC50 (converted)
QUANTITY: IC50 (nM)

Completed entries (count: 4):
COMPOUND	TARGET OR TEST SYSTEM	IC50 (nM)
C[C@]1(c2cccc(NC(=O)c3ccc(C#N)cn3)c2)N=C(N)CO[C@@]1(F)C(F)(F)F	Abeta 1-42	126
COc1ccc(C(=O)Nc2cccc([C@@]3(C)N=C(N)CO[C@@]3(F)C(F)(F)F)c2)nc1	Abeta 1-42	229
N#Cc1ccc(C(=O)Nc2cccc([C@@]3(C4CC4)N=C(N)CO[C@@H]3F)c2)nc1	Abeta 1-42	41.7
NC1=N[C@@](c2cccc(-c3cncc(F)c3)c2)(C2CC2)[C@H](C(F)(F)F)OC1	Abeta 1-42	46.8

[1] COc1cnc(C(=O)Nc2cccc([C@@]3(C4CC4)N=C(N)CO[C@@]3(F)C(F)(F)F)c2)cn1
[2] C[C@]1(c2cc(NC(=O)c3ncc(C#N)cc3Cl)ccc2F)N=C(N)CO[C@H]1C(F)(F)F
[3] NC1=N[C@@](c2cccc(NC(=O)c3cnc(OCC(F)(F)F)cn3)c2)(C2CC2)[C@@H](F)OC1
In this exercise, place the 3 compounds in ascending sequence of their recorded IC50. Rank them, then answer with their labels in that order. 2, 1, 3
(2: 6.31 nM, 1: 37.2 nM, 3: 58.9 nM)

[I] COc1cnc(C(=O)Nc2ccc(F)c([C@@]3(C)N=C(N)CO[C@]3(F)C(F)(F)F)c2)cn1
[II] CCC1(c2cc(NC(=O)c3ncc(Cl)cc3F)ccc2F)N=C(N)COC1F (stereo not shown)
Input pair: I , II . Output: entry with lower IC50. Could you answer with the label of the item you picked? II

====

Target: recombinant BACE1 protein (Homo sapiens, UniProt P56817)
Sequence (P56817 46-501): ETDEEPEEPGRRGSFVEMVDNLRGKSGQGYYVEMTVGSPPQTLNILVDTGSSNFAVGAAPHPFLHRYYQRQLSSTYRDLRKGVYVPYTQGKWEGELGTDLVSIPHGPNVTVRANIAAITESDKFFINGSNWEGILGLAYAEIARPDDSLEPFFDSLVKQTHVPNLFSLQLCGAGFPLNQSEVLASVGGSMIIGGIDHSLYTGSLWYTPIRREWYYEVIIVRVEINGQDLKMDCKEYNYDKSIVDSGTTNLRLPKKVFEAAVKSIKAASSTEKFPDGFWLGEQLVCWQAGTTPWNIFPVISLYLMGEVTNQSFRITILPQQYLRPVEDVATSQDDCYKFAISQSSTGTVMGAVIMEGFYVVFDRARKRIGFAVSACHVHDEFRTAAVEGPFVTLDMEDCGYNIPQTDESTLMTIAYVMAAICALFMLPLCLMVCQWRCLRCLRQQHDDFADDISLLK
Assay: Biochemical FRET based assay
Settings: recombinant BACE1 1 μg/ml, 120 minutes at room temperature, pH 5.0; read-out: Biochemical FRET based assay pIC50 (converted)
QUANTITY: IC50 (µM)

Completed entries (count: 3):
COMPOUND	UNITS TEXT	IC50
NC1=N[C@@](c2cccc(-c3cncc(F)c3)c2)(C2CC2)[C@H](C(F)(F)F)OC1	µM	0.132
NC1=N[C@@](c2cc(-c3cncnc3)ccc2F)(C2CC2)[C@H](F)OC1	µM	14.8
Cc1ccc(C(=O)Nc2cccc(C3(C)N=C(N)COC3(F)C(F)(F)F)c2)nc1 (single isomer, unassigned) [Compound 193]	µM	0.0741

[1] COc1cncc(-c2cccc(C3(C)N=C(N)COC3F)c2)c1 (single isomer, unassigned) [Compound 89]
[2] COc1cncc(-c2cccc(C3(C)COC4(CC4)C(N)=N3)c2)c1 (racemic)
Among 1 and 2 , which shows a numerically higher IC50 result? Use the label to indicate which entry you chose. 1

====

QUANTITY: melting point (°C)

The following compounds have reported results that may help.
COMPOUND	UNITS TEXT	melting point
C[C@]1(c2cc(NC(=O)c3ncc(Cl)cc3Cl)ccc2F)N=C(N)CO[C@]1(F)C(F)(F)F	°C	165.14
CCC1(c2cc(-c3cncnc3)ccc2F)N=C(N)COC1(F)C(F)(F)F (stereo not drawn)	°C	204.89
CC1(c2cccc(NC(=O)c3ncc(Cl)cc3F)c2)N=C(N)COC1(F)C(F)(F)F (single isomer, unassigned) [Compound 174]	°C	179.18
C[C@]1(c2cc(NC(=O)c3ccc(C#N)cn3)ccc2F)N=C(N)CO[C@@]1(F)C(F)(F)F	°C	196.01

[I] C[C@]1(c2cc(-c3cncnc3)c(F)cc2F)N=C(N)CO[C@H]1C(F)(F)F
[II] CC1(c2cccc(-c3cncnc3)c2)N=C(N)COC1F (stereo not drawn) [Compound 98]
Which shows the larger melting point value: I or II ? To answer, give the label that identifies your chosen option. II
